molecular target: Phosphatidylinositol 5-phosphate 4-kinase type-2 alpha (Homo sapiens); experiment: qHTS for Inhibitors of phosphatidylinositol 5-phosphate 4-kinase (PI5P4K); details: PI5P4Kalpha enzyme, ADP-Glo luminescence, 60 min; also: value at the top dose of about 77 µM; % is scaled to controls: 0 for no effect and ±100 for the full control effect
The whole screen tested about 330,000 compounds, of which about 4,100 (1.2%) were called active. Roughly 2% stayed inconclusive and do not appear here. The calls were made as follows: active = max response of -50% or lower; inconclusive = between -30% and -50%; inactive = -30% or higher. Many of the other results were omitted from the sample, so actives are more common in it than they were.
Respond with a class label; see active, inactive

Example results:
> print(dat)
                                   molecule  qualitative.label
1  COC(=O)[C@@]12C[C@@H](CC(=O)NCc3cccc(C(F)(F)F)c3)C(=O)N(Cc3ccco3)C1=CCC(C)(C)C2           inactive
2  CN(C)C(=O)c1cccc(-c2cnc3c(NC=O)cc(-c4ccc(C(=O)N5CCOCC5)cc4)cn23)c1           inactive

Prompt line: # fetch the recorded call for `COC(=O)c1ccc2nc(C3CCCCC3)c(Cc3cccc(F)c3)n2c1` here
Response line: inactive

Prompt line: What about this molecule? `CN(C(=O)c1ccccn1)c1nnc(-c2ccccn2)s1`
Response line: inactive

Prompt line: What about this molecule? `COc1cccc(CNC(=O)[C@@H]2CCCN2C(=O)[C@@H]2CCCN2C(=O)c2ccccc2)c1`
Response line: inactive

Prompt line: What about this molecule? `S=c1[nH]nc(-c2cc(-c3ccsc3)n[nH]2)n1-c1ccccc1`
Response line: inactive

Prompt line: What about this molecule? CC1(C(=O)Nc2ccc3c(c2)OCCO3)CSCC(=O)N1CCOc1ccccc1 (stereo not given)
Response line: inactive

Prompt line: What about this molecule? `c1ccc(-c2cc(-c3nnc4sc(-c5ccccn5)nn34)[nH]n2)cc1`
Response line: active

Prompt line: What about this molecule? `Cc1ccc(-c2c[n+](=O)c3c(n2[O-])CCC3)cc1`
Response line: inactive

Prompt line: What about this molecule? `Cc1ccc(-c2c(C)n([O-])c3c([n+]2=O)CCC3)cc1`
Response line: inactive

Prompt line: What about this molecule? Cc1cc(N2C(=O)C(O)=C(C(=O)c3ccc(C)o3)C2c2ccc(OCc3ccccc3)cc2)no1 (stereo not given)
Response line: active

Prompt line: What about this molecule? `CCN1C(=O)[C@@H]2[C@@H]3CN(S(=O)(=O)c4ccccc4C)[C@@H](c4ccc(Cl)cc4)[C@@H]3C(=O)C[C@@H]2C1=O`
Response line: inactive

Prompt line: What about this molecule? `CCOC(=O)c1ccc(COC(=O)c2cc(=O)[nH]c3ccccc23)o1`
Response line: inactive

Prompt line: What about this molecule? `Cc1ccc(C(=O)Nc2ccc3c(c2)OCO3)cc1S(=O)(=O)N1CCCCC1`
Response line: inactive

Prompt line: What about this molecule? `CS(=O)(=O)c1ccc2c(c1)SC1=NC(=O)/C(=C/c3ccco3)C(=N)N12`
Response line: active

Prompt line: What about this molecule? Cc1cccc(-c2cnc(C(O)c3cc(C)cc(C)c3)[nH]2)c1 (stereo not given)
Response line: inactive

Prompt line: What about this molecule? `Nc1cccc(-c2cncc(N3CCN(Cc4ccccn4)CC3)n2)c1`
Response line: inactive

Prompt line: What about this molecule? `COC(=O)/C=C\C(=O)Nc1cccc([N+](=O)[O-])c1`
Response line: inactive

Prompt line: What about this molecule? `Cc1nn(CC(=O)Nc2ccc3c(c2)OCO3)c(C)c1[N+](=O)[O-]`
Response line: inactive

Prompt line: What about this molecule? `C=C(C)C(=O)O[C@H]1C/C(C)=C\C(=O)/C=C(\C)[C@H](O)[C@@H]2OC(=O)C(=C)[C@@H]21`
Response line: active

----------
Entries and their measured max response follow.
Molecular target: Phosphatidylinositol 5-phosphate 4-kinase type-2 alpha (Homo sapiens) (UniProt P48426)
Sequence (P48426 whole entry, looked up): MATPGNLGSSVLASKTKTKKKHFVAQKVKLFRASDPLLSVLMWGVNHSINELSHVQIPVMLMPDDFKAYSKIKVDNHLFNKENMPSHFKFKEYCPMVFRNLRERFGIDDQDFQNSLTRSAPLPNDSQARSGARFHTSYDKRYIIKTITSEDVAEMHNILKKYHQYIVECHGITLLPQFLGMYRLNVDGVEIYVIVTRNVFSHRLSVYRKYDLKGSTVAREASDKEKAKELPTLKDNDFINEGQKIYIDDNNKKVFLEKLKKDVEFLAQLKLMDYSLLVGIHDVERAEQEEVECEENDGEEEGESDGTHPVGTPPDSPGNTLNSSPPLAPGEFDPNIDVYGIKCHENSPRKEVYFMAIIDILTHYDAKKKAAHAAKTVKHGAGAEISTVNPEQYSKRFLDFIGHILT
Experiment: qHTS for Inhibitors of phosphatidylinositol 5-phosphate 4-kinase (PI5P4K); also: value at the top dose of about 77 µM; % is scaled to controls: 0 for no effect and ±100 for the full control effect
Settings: PI5P4Kalpha enzyme, ADP-Glo luminescence, 60 min; hits give low values
Source text: In addition to finding PI5P, we discovered the type II phosphatidylinositol 5-phosphate 4-kinase (PI5P4K) family (alpha, beta, gamma isoforms) that catalyze the conversion of PI5P to PI(4,5)P2. Alternatively, PI(4,5)P2 can also be synthesized through phosphatidylinositol-4-phosphate (PI4P) by the type I phosphatidylinositol 4-phosphate 5-kinases (PI4P5K). […]
Hit rate of the full screen: of about 330,000 compounds, about 4,100 (1.2%) were called active. Not shown: some 2% with an inconclusive outcome. The list comes from a sample in which actives are over-represented; it also holds close analogues and randomly drawn compounds.
The response must be a number in % with no trailing unit.

> print(dat)
                                   molecule                         target.under.test  parameter.measured  display.unit  measured
1  CC(=O)Nc1cc(-c2ccccc2N(C)C)cn2c(-c3ccc(F)c(Cl)c3)cnc12  Phosphatidylinositol 5-phosphate 4-kinase type-2 alpha (Homo sapiens) (UniProt P48426)        max response             %     -1.56
2  COc1cccc(CN(C)C(=O)CC[C@H]2O[C@@H](n3cnc4c(NC(=O)c5ccccc5)ncnc43)[C@H](O)[C@@H]2O)c1  Phosphatidylinositol 5-phosphate 4-kinase type-2 alpha (Homo sapiens) (UniProt P48426)        max response             %     -6.93
3  CC1(C(=O)NS(=O)(=O)c2cccc(F)c2)CCN1C(=O)Cc1ccc(Cl)cc1Cl (centres undefined)  Phosphatidylinositol 5-phosphate 4-kinase type-2 alpha (Homo sapiens) (UniProt P48426)        max response             %     -3.09
4  CCCNC(=O)C1(C)CCN(Cc2csc(-c3ccc(Cl)cc3)n2)C1 (centres undefined)  Phosphatidylinositol 5-phosphate 4-kinase type-2 alpha (Homo sapiens) (UniProt P48426)        max response             %     -11.7
5       CCCCCc1c(Cc2ccccc2)ncn1CCc1ccccc1OC  Phosphatidylinositol 5-phosphate 4-kinase type-2 alpha (Homo sapiens) (UniProt P48426)        max response             %     -4.89
6  COc1cccc(CNS(=O)(=O)c2ccc3c(c2)CC(C)N3C(C)=O)c1 (centres undefined)  Phosphatidylinositol 5-phosphate 4-kinase type-2 alpha (Homo sapiens) (UniProt P48426)        max response             %     -2.98
7  CC(C)CCNC(=O)c1[nH]c(C(F)(F)F)nc1-c1ccccc1  Phosphatidylinositol 5-phosphate 4-kinase type-2 alpha (Homo sapiens) (UniProt P48426)        max response             %     -8.89
8  CCCCNC(=O)OC1CC2CC1[C@H]1CCCCN1C2=O (some centres undefined)  Phosphatidylinositol 5-phosphate 4-kinase type-2 alpha (Homo sapiens) (UniProt P48426)        max response             %      2.78

Prompt line: // lookup max response for `CC1=NN(c2ccc(Cl)c(C(=O)O)c2)C(=O)/C1=C/c1ccc(-c2ccccc2[N+](=O)[O-])o1`
Response line: -9.29

Prompt line: What about this molecule? CCOC(=O)C1C(C)C(C(C)(C)C)N(S(=O)(=O)c2ccc(C)cc2)C1c1ccccc1 (centres undefined)
Response line: 6.25

Prompt line: What about this molecule? `Cc1ccc(/C=C/C(=O)Nc2cc(S(=O)(=O)N3CCCCCC3)ccc2OCC(F)(F)F)o1`
Response line: 2.97

Prompt line: What about this molecule? `CCOc1ccc(-n2c(O)c(/C=N/c3ccnn3Cc3ccncc3)c3ccccc3c2=O)cc1`
Response line: 1.64

Prompt line: What about this molecule? `O=C1NN(c2ccccc2)C(=O)/C1=C/c1ccc(-c2cccc(C(=O)O)c2)o1`
Response line: -59.1

Prompt line: What about this molecule? `CCCOc1ccc(F)cc1-c1cc(C(=O)Nc2ccc(F)c(Cl)c2)[nH]n1`
Response line: -4.85

Prompt line: What about this molecule? C#Cc1ccc(NC(=O)C2(C)CCN2C(=O)Cc2ccc(-c3ccccc3)cc2)cc1 (centres undefined)
Response line: 26.3

Prompt line: What about this molecule? OC(c1ccccc1)c1nc(-c2cnc3ccccc3c2)cs1 (centres undefined)
Response line: -0.318

Prompt line: What about this molecule? `CC(C)NC(=O)Nc1ccc2c(c1)C(=O)N([C@H](C)CO)C[C@H](C)[C@@H](CN(C)Cc1ccc(C(F)(F)F)cc1)OCCCC[C@@H](C)O2`
Response line: 10.4

Prompt line: What about this molecule? CC(C)CNC(=O)C1(C)CCCN1C(=O)CSc1ccccc1 (centres undefined)
Response line: -2.54

Prompt line: What about this molecule? CC(=O)N1c2ccc(S(=O)(=O)N(C)CC(=O)N(C)Cc3ccccc3)cc2CC1C (centres undefined)
Response line: -1.34

Prompt line: What about this molecule? `Cc1ccccc1C1=NC(C(F)(F)F)(C(F)(F)F)c2c(n(-c3ccc(F)cc3)c(=O)[nH]c2=O)N1`
Response line: -8.19

Prompt line: What about this molecule? `Cc1ccc(-c2c(N)nc3ncccn23)cc1`
Response line: 0.002

Prompt line: What about this molecule? `Cc1cc(O)c(Sc2ccccc2)c(=O)o1`
Response line: 5.88

Prompt line: What about this molecule? `CCOc1ccc(-n2c(O)c(/C=N/Nc3nc(C)cc(C)n3)c3ccccc3c2=O)cc1`
Response line: 3.69
